Experiment: Protonation constants by potentiometric titration
Type: physicochemical
Conditions: I=0.1 M KCl, 25° C.
Please provide measured log K4 (protonation constant) for the entries that follow.

// field: log K4 (protonation constant); key: `O=C(O)CN(CCN(CC(=O)O)CC(=O)O)CC(=O)O` ; value = 2.00

// field: log K4 (protonation constant); key: `O=C(O)CN1CCN(CC(=O)O)CCN(CC(=O)O)CCN(CC(=O)O)CC1` ; value = 3.95

// field: log K4 (protonation constant); key: `O=C(O)c1cccc(CN2CCOCCOCCN(Cc3cccc(C(=O)O)n3)CCOc3ccccc3OCC2)n1` ; value = 2.49

// field: log K4 (protonation constant); key: `O=C(O)c1cccc(CN2CCOCCOCCN(Cc3cccc(C(=O)O)n3)CCOCCOCC2)n1` ; value = 2.45

// field: log K4 (protonation constant); key: `O=C(O)CN(CCN(CC(=O)O)CC(=O)O)CCN(CC(=O)O)CC(=O)O` ; value = 2.71
